Molecular target: 5-hydroxytryptamine receptor 2A (Homo sapiens, UniProt P28223)
Sequence (P28223 whole entry): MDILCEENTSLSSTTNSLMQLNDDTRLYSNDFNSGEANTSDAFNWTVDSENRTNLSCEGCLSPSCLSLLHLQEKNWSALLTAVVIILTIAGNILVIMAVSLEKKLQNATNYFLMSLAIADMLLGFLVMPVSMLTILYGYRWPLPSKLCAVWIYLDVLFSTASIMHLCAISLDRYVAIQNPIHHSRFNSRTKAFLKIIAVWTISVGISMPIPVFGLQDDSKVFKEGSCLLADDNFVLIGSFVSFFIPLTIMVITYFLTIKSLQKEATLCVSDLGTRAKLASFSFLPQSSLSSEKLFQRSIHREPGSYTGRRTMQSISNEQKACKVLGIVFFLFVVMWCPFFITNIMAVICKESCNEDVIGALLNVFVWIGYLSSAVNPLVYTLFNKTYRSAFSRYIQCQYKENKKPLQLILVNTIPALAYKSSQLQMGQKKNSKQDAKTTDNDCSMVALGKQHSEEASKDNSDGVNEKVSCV
Assay: Displacement of [3H]ketanserin from 5HT2A receptor expressed in NIH3T3 cells
Assay type: cell-based
I'd appreciate it if you marked entries satisfied when Ki is lower than 60 nM and not satisfied when it is not.

COMPOUND: COc1cc(CC(C)N)c(OC)cc1O (configuration not stated)
TESTED_SYSTEM: 5-hydroxytryptamine receptor 2A (Homo sapiens, UniProt P28223)
ANSWER_LABEL: not satisfied
--
COMPOUND: NCCc1ccc(Br)cc1
TESTED_SYSTEM: 5-hydroxytryptamine receptor 2A (Homo sapiens, UniProt P28223)
ANSWER_LABEL: not satisfied
--
COMPOUND: COc1cc(OC)c(OC)cc1CC(C)N (configuration not stated)
TESTED_SYSTEM: 5-hydroxytryptamine receptor 2A (Homo sapiens, UniProt P28223)
ANSWER_LABEL: not satisfied
--
COMPOUND: CCCCCCc1cc(OC)c(CC(C)N)cc1OC (configuration not stated)
TESTED_SYSTEM: 5-hydroxytryptamine receptor 2A (Homo sapiens, UniProt P28223)
ANSWER_LABEL: satisfied
--
COMPOUND: NCC1c2ccccc2Cc2cc(CCCc3ccccc3)ccc21 (configuration not stated)
TESTED_SYSTEM: 5-hydroxytryptamine receptor 2A (Homo sapiens, UniProt P28223)
ANSWER_LABEL: satisfied

Query string: Find out if reported Ki for NCC1c2ccccc2Cc2cc(Br)ccc21 (configuration not stated) is less than 60 nM
Result string: satisfied

Query string: Find out if reported Ki for `CCCCCCc1ccc(CCN)cc1` is less than 60 nM
Result string: not satisfied

Query string: Find out if reported Ki for CCCCCCc1ccc(C(CN)c2ccccc2)cc1 (configuration not stated) is less than 60 nM
Result string: not satisfied

Query string: Find out if reported Ki for CCCCCCc1ccc2c(c1)Cc1ccccc1C2CN (configuration not stated) is less than 60 nM
Result string: satisfied

Query string: Find out if reported Ki for COc1cc(CC(C)N)c(OC)cc1CCCc1ccccc1 (configuration not stated) is less than 60 nM
Result string: satisfied

Query string: Find out if reported Ki for CCCCCOc1ccc2c(c1)Cc1ccccc1C2CN (configuration not stated) is less than 60 nM
Result string: satisfied

The values you see were collected from ChEMBL document CHEMBL1142528.
